Quick list: LDH activity ± SD per entry.
- Tested on: rat synovial cells
- experiment-description: LDH activity assay of synovial cells in vitro
- Assay type: cell-based
- stated-conditions: 1 μM, supernatant of rat synovial cells, 48 h
Marks after values point to notes of the source that are not given here.
reported-metric: LDH activity ± SD

>  <compound>
O=C1C=C2CC[C@@H](O)CC2C(=O)C1 (stereo partly shown) [Compound 32]

>  <assayed-system>
rat synovial cells

>  <reported-metric>
LDH activity ± SD

>  <test-result>
307.02 ± 30.86 ^c U/L

$$$$
>  <compound>
CCOC(=O)[C@@H]1CCC2=CC(=O)CC(=O)C2C1 (stereo partly shown) [Compound 23]

>  <assayed-system>
rat synovial cells

>  <reported-metric>
LDH activity ± SD

>  <test-result>
342.78 ± 22.74 ^c U/L

$$$$
>  <compound>
O=C1C=C2CC[C@@H](C3CCC(=O)CC3)CC2C(=O)C1 (stereo partly shown) [Compound 28]

>  <assayed-system>
rat synovial cells

>  <reported-metric>
LDH activity ± SD

>  <test-result>
375.29 ± 17.87 ^c U/L

$$$$
>  <compound>
CN(Cc1cnc2nc(N)nc(N)c2n1)c1ccc(C(=O)N[C@@H](CCC(=O)O)C(=O)O)cc1 [methotrexate, reference compound]

>  <assayed-system>
rat synovial cells

>  <reported-metric>
LDH activity ± SD

>  <test-result>
438.75 ± 11.50 ^c U/L

$$$$
>  <compound>
O=C1C=C2CCC(F)(F)CC2C(=O)C1 (stereo not shown) [Compound 36]

>  <assayed-system>
rat synovial cells

>  <reported-metric>
LDH activity ± SD

>  <test-result>
292.07 ± 31.56 U/L

$$$$
>  <compound>
CC(=O)N[C@@H]1CCC2=CC(=O)CC(=O)C2C1 (stereo partly shown) [Compound 33]

>  <assayed-system>
rat synovial cells

>  <reported-metric>
LDH activity ± SD

>  <test-result>
264.24 ± 27.71 U/L

$$$$
>  <compound>
O=C1C=C2CC[C@@H](C(=O)O)CC2C(=O)C1 (stereo partly shown) [Compound 21]

>  <assayed-system>
rat synovial cells

>  <reported-metric>
LDH activity ± SD

>  <test-result>
297.79 ± 49.6 U/L

$$$$
